assay: Drug uptake in human VCaP cells xenografted in SCID mouse tumor tissue at 20 mg/kg, po single dose measured after 6 hrs by LC-MS/MS analysis; assay type: ADME, organism-based, Neoplasm; settings: in vivo
Listed below: Drug uptake values for each entry.
Express it in ng/g; write the number only.

For this compound ( CC1(C)[C@H](NC(=O)c2ccc(N3CCN(CC4CN(c5ccc6c(c5)C(=O)N(C5CCC(=O)NC5=O)C6=O)C4)CC3)cc2)C(C)(C)[C@H]1Oc1ccc(C#N)c(Cl)c1 (stereo partly drawn) ), measured Drug uptake is 718

For this compound ( CC1(C)[C@H](NC(=O)c2ccc(N3CCN(CC4CCN(c5ccc6c(c5)C(=O)N(C5CCC(=O)NC5=O)C6=O)CC4)CC3)cc2)C(C)(C)[C@H]1Oc1ccc(C#N)c(Cl)c1 (stereo partly drawn) ), measured Drug uptake is 635

----------
target: Protein cereblon/Androgen receptor (Homo sapiens, UniProt P10275+Q96SW2); experiment: Protac activity at CRBN/AR in human VCaP cells assessed as induction of AR degradation at 0.01 uM measured after 24 hrs by western blot analysis relative to control; type: cell-based
Sequence (P10275 whole entry, looked up): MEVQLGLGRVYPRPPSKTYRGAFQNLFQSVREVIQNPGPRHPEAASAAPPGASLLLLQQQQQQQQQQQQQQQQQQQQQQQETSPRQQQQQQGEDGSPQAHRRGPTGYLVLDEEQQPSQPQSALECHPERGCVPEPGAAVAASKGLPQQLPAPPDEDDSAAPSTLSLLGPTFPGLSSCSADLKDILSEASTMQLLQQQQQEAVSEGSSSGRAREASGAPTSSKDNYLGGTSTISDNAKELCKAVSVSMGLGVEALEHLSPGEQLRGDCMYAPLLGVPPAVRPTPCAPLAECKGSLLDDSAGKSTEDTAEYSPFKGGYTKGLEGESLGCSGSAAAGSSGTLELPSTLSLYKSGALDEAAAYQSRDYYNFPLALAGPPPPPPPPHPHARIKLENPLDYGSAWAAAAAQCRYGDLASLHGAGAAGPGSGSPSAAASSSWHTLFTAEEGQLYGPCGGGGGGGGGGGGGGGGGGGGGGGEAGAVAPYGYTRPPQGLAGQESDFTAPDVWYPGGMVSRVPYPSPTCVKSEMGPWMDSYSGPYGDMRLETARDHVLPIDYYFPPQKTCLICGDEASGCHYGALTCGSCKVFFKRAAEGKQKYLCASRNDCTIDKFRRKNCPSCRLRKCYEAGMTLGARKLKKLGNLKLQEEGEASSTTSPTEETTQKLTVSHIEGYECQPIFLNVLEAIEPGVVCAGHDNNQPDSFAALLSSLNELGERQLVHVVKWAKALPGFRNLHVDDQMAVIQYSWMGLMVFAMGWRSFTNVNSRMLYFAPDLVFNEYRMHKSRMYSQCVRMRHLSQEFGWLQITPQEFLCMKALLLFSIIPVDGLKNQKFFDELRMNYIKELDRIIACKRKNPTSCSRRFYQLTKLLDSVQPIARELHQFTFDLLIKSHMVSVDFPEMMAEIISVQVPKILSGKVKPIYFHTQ
Sequence (Q96SW2 whole entry, looked up): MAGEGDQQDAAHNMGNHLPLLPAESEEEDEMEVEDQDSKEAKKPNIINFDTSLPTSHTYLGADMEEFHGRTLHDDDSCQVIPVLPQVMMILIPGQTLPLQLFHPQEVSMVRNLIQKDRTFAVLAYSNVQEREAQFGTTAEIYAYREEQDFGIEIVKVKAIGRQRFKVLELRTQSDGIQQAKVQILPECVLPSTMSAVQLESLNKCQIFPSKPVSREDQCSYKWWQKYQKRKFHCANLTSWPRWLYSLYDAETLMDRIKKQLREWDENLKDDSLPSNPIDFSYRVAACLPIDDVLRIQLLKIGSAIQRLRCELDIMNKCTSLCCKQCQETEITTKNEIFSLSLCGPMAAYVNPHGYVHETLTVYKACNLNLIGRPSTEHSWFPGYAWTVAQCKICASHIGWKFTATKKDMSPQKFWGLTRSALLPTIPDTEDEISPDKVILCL
Doc: threshold 60% (exclusive). Items with Activity beneath it return t; others return f.

Reference set, count: 5
Compound | Label
CC1(C)[C@H](NC(=O)c2ccc(N3CCN(C4CN(c5ccc6c(c5)C(=O)N(C5CCC(=O)NC5=O)C6=O)C4)CC3)cc2)C(C)(C)[C@H]1Oc1ccc(C#N)c(Cl)c1 (stereo partly specified) | f
CC1(C)[C@H](NC(=O)c2ccc(N3CCN(CC4CC5(CCN(c6ccc7c(c6)C(=O)N(C6CCC(=O)NC6=O)C7=O)C5)C4)CC3)cc2)C(C)(C)[C@H]1Oc1ccc(C#N)c(Cl)c1 (stereo partly specified) | t
CC1(C)[C@H](NC(=O)c2ccc(NCCCCCCNc3ccc4c(c3)C(=O)N(C3CCC(=O)NC3=O)C4=O)cc2)C(C)(C)[C@H]1Oc1ccc(C#N)c(Cl)c1 (stereo partly specified) | f
CC1(C)[C@H](NC(=O)c2ccc(NCCCCCCNc3cccc4c3C(=O)N(C3CCC(=O)NC3=O)C4=O)cc2)C(C)(C)[C@H]1Oc1ccc(C#N)c(Cl)c1 (stereo partly specified) | t
CC1(C)[C@H](NC(=O)c2ccc(N3CCN(CCCNc4ccc5c(c4)C(=O)N(C4CCC(=O)NC4=O)C5=O)CC3)cc2)C(C)(C)[C@H]1Oc1ccc(C#N)c(Cl)c1 (stereo partly specified) | t

We now examine a further compound.
input: Is it true that Activity reported for CC1(C)[C@H](NC(=O)c2ccc(NCCCCCCCCNc3ccc4c(c3)C(=O)N(C3CCC(=O)NC3=O)C4=O)cc2)C(C)(C)[C@H]1Oc1ccc(C#N)c(Cl)c1 (stereo partly specified) is less than 60%?
output: f
